Tested on: SNB-19 CNS
assay.text: NCI tumour cell line growth inhibition, 48 h
Consider the following compounds and their measured TGI readings.

compound: O=[N+]([O-])c1ccc(N=Nc2c(O)[nH]c3ccc([N+](=O)[O-])cc23)cc1
value.units: µM
censoring.qualifier: =
TGI: 40.5
//
compound: Cc1cc([N+](=O)[O-])c(C)c2c1[nH]c1ccc(/C(CCC3CCCC3)=N\N)cc12
value.units: µM
censoring.qualifier: =
TGI: 35.7
//
compound: CN(C)c1ccc(/C=c2/c3ccccc3n3c2cc(-c2ccccc2)[n+]3C)cc1
value.units: µM
censoring.qualifier: =
TGI: 1.28
//
compound: O=c1[nH]c(=O)n(C2CC(O)C(CO)O2)cc1OC/C=C/Cc1ccccc1 (stereo unspecified)
value.units: µM
censoring.qualifier: >
TGI: 100
//
compound: CC12CC3(C)CC(C)(C1)CC(N=[N+]=[N-])(C2)C3
value.units: µM
censoring.qualifier: >
TGI: 100
//
compound: NC(N)=NS(=O)(=O)c1ccc(NC(=O)c2cccc3c(NNc4ccc(S(N)(=O)=O)cc4)c4ccccc4nc23)cc1
value.units: µM
censoring.qualifier: >
TGI: 100
